# measured_target: Cyclin-dependent kinase 2/cyclin E1 (Homo sapiens)
# test_method_notes: Inhibition of CDK2/cyclin E (unknown origin) expressed in baculovirus infected insect Sf9 cells using histone H1 as substrate in presence of [gamma-33P]ATP
metric: IC50 (nM)
The reply should contain only the number, in nM.

Solved entries:
structure_smiles_string | measured_target | units_symbol | IC50
CCCCn1cnc2c(Nc3ccc(Cl)cc3)nc(N[C@H]3CC[C@H](N)CC3)nc21 | Cyclin-dependent kinase 2/cyclin E1 (Homo sapiens) | nM | 117
CCCCCCn1cnc2c(Nc3ccc(Cl)cc3)nc(N[C@H]3CC[C@H](N)CC3)nc21 | Cyclin-dependent kinase 2/cyclin E1 (Homo sapiens) | nM | 433
CC(C)=CCC/C(C)=C/Cn1cnc2c(Nc3cccc(Cl)c3)nc(N[C@H]3CC[C@H](N)CC3)nc21 | Cyclin-dependent kinase 2/cyclin E1 (Homo sapiens) | nM | 7170
CCCCn1cnc2c(NCc3cccc(Cl)c3)nc(N[C@H]3CC[C@H](N)CC3)nc21 | Cyclin-dependent kinase 2/cyclin E1 (Homo sapiens) | nM | 207
COc1ccc(Cn2cnc3c(Nc4cccc(Cl)c4)nc(N[C@H]4CC[C@H](N)CC4)nc32)cc1 | Cyclin-dependent kinase 2/cyclin E1 (Homo sapiens) | nM | 5500
CCCCCCn1cnc2c(Nc3cccc(Cl)c3)nc(N[C@H]3CC[C@H](N)CC3)nc21 | Cyclin-dependent kinase 2/cyclin E1 (Homo sapiens) | nM | 500
CC(C)CCn1cnc2c(Nc3cccc(O)c3)nc(N[C@H]3CC[C@H](N)CC3)nc21 | Cyclin-dependent kinase 2/cyclin E1 (Homo sapiens) | nM | 513
CC(C)=CCn1cnc2c(Nc3cccc(Cl)c3)nc(N[C@H]3CC[C@H](N)CC3)nc21 | Cyclin-dependent kinase 2/cyclin E1 (Homo sapiens) | nM | 227

Shifting focus to the compound that follows.
What value of IC50 has been recorded for this entry: COc1cc(Nc2nc(N[C@H]3CC[C@H](N)CC3)nc3c2ncn3CCC(C)C)cc(OC)c1
980

---

# measured_target: Platelet-derived growth factor receptor alpha (Homo sapiens, UniProt P16234)
# Sequence (P16234 whole entry, the tested form may be a part): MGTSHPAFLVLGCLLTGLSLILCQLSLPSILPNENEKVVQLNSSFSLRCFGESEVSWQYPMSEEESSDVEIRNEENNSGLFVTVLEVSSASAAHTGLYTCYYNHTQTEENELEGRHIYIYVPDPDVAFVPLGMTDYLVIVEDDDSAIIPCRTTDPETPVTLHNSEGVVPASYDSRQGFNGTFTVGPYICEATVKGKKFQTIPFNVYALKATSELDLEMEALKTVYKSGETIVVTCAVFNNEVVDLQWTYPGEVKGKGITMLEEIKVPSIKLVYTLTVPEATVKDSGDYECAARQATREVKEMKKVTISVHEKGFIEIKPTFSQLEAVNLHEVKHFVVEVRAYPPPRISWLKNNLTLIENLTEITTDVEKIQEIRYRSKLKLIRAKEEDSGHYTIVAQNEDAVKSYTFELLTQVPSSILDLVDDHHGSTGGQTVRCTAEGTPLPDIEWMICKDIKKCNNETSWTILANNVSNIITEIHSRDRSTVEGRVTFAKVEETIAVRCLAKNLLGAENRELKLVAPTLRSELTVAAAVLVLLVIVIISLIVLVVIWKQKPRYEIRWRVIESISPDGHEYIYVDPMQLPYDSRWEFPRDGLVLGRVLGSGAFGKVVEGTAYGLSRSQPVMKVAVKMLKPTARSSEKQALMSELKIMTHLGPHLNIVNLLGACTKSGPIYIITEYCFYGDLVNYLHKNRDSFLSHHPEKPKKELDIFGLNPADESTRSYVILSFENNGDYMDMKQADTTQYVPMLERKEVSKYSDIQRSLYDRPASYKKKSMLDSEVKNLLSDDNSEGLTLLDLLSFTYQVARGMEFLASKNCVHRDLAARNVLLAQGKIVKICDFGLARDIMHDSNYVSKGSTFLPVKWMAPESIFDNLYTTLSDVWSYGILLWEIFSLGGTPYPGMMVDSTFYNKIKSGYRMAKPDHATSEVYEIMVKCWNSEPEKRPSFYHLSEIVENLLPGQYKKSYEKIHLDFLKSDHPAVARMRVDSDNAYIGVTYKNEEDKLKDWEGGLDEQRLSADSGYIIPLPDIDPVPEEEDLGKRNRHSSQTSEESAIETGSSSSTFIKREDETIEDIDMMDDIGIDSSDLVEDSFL
# test_method_notes: Inhibition of recombinant human N-terminal GST-His6 tagged PDGFRalpha (Q551 to L1089 residues) expressed in Sf9 insect cells using poly(Ala,Glu,Lys,Tyr)6:2:5:1 hydrobromide as substrate in presence of [gamma-33P]ATP
Below: a set of entries, each annotated with reported IC50.
The reply should contain only the number, in nM.

Solved entries:
structure_smiles_string | measured_target | measured
CCCCn1cnc2c(Nc3cccc(Cl)c3)nc(N[C@H]3CC[C@H](N)CC3)nc21 | Platelet-derived growth factor receptor alpha (Homo sapiens, UniProt P16234) | 154
COc1ccc(Cn2cnc3c(Nc4cccc(Cl)c4)nc(N[C@H]4CC[C@H](N)CC4)nc32)cc1 | Platelet-derived growth factor receptor alpha (Homo sapiens, UniProt P16234) | 7660

What value of IC50 has been recorded for this entry: N[C@H]1CC[C@H](Nc2nc(Nc3cccc(Cl)c3)c3ncn(Cc4ccccc4)c3n2)CC1
5100

What value of IC50 has been recorded for this entry: CCCCCCn1cnc2c(Nc3ccc(O)cc3)nc(N[C@H]3CC[C@H](N)CC3)nc21
452

What value of IC50 has been recorded for this entry: CC(C)CCn1cnc2c(Nc3ccccc3)nc(N[C@H]3CC[C@H](N)CC3)nc21
96

What value of IC50 has been recorded for this entry: COc1cc(Nc2nc(N[C@H]3CC[C@H](N)CC3)nc3c2ncn3CCC(C)C)cc(OC)c1
290

What value of IC50 has been recorded for this entry: CC(C)CCn1cnc2c(Nc3cccc(Cl)c3)nc(N[C@H]3CC[C@H](N)CC3)nc21
66
